molecular target: Isocitrate dehydrogenase [NADP] cytoplasmic (Homo sapiens, UniProt O75874, R132H); experiment: Inhibition of IDH1 R132H mutant (unknown origin) using alphaKG as substrate in presence of NADPH by LC-MS/MS analysis
Sequence (O75874 2-414 R132H limits assumed): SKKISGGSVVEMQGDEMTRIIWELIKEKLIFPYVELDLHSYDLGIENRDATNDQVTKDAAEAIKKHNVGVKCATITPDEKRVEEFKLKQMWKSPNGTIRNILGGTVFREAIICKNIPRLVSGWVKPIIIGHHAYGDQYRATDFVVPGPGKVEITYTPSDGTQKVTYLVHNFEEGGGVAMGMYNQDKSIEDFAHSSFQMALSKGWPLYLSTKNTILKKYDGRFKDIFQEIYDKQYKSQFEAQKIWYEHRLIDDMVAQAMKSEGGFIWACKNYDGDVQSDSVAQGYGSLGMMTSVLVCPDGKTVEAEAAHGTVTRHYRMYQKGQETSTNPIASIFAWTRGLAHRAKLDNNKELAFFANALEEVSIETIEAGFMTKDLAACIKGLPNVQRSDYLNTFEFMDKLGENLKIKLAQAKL
pIC50: −log10 of the molar value.

Compound	pIC50
CC(C)[C@H]1COC(=O)N1c1ccnc(N[C@@H](C)c2nc(-c3ccccc3Cl)no2)n1	6.21
CC(Nc1nccc(N2CCOC2=O)n1)c1ncc(Oc2ccc(F)cc2)cn1 (racemic)	5.06
CC(C)[C@H]1COC(=O)N1c1ccnc(N[C@@H](C)c2ncc(Oc3ccc(F)cc3)cn2)n1	7.41

###

assay: Oral bioavailability in C57BL/6 mouse at 10 mg/kg by mass spectrometry based HPLC method; assay type: ADME, organism-based; conditions: in vivo

Smiles notation	bioavailability [%]
C[C@H](Nc1nccc(N2C(=O)OC[C@@H]2CF)n1)c1cn(-c2ccc(C(F)(F)F)cc2)cn1	149

###

Each entry below lists one item and its recorded microsomal CLint at 1 µM value.
assay: Intrinsic clearance in rat liver microsomes at 1 uM in presence of NADPH by LC-MS/MS analysis; assay type: ADME, microsome; conditions: read-out: CLH

Compound	Value units	microsomal CLint at 1 µM
CC[C@H]1COC(=O)N1c1nc(N[C@@H](C)c2cn(-c3ccc(Cl)cc3)cn2)ncc1F	µL/min/mg	448
CC(C)[C@H]1COC(=O)N1c1ccnc(N[C@@H](C)c2nc(-c3ccc(Cl)cc3)no2)n1	µL/min/mg	302
CC(C)[C@H]1COC(=O)N1c1ccnc(N[C@@H](C)c2cn(-c3ccc(Cl)cc3)cn2)n1	µL/min/mg	489
CC(C)[C@H]1COC(=O)N1c1ccnc(N[C@@H](C)c2ncc(Oc3ccc(F)cc3)cn2)n1	µL/min/mg	238
CC(Nc1nccc(N2CCOC2=O)n1)c1ncc(Oc2ccc(F)cc2)cn1 (racemic)	µL/min/mg	35
C[C@H](Nc1ncc(F)c(N2C(=O)OC(C)(C)C2(C)C)n1)c1nc(-c2ccc(Cl)cc2)no1	µL/min/mg	170
C[C@H](Nc1ncc(F)c(N2CCOC2=O)n1)c1cn(-c2ccc(Cl)cc2)cn1	µL/min/mg	34
C[C@H](Nc1ncc(F)c(N2C(=O)OC[C@@H]2[C@H](C)F)n1)c1cn(-c2ccc(Cl)cc2)cn1	µL/min/mg	272
